Ulcer area of colon values for the compounds below.
- Tested on: DNBS-Induced Inflammatory Bowel Disease Models in Rats
- Assay text: Biological Example 3: DNBS-induced inflammatory bowel disease models in rats
- Format: in vivo, Wistar rats
- Setup conditions: 30 mg/Kg i.g. qd × 7; day 7
Marks after values point to notes of the source that are not given here.

Solved cases (3 shown):
compound="COCCCN1C(=O)CCC(N2C(=O)c3cccc(NC(C)=O)c3C2=O)C1=O (stereo not shown) [Example 16]" recorded_result="0.84 ± 1.25# cm^2"
compound="COCCN1C(=O)CCC(N2C(=O)c3cccc(F)c3C2=O)C1=O (stereo not shown) [Example 4]" recorded_result="0.58 ± 0.78# cm^2"
compound="Nc1cccc2c1C(=O)N(C1CCC(=O)N(CCO)C1=O)C2=O (stereo not shown) [Example 6]" recorded_result="0.34 ± 0.54# cm^2"

input: Name the recorded Ulcer area of colon for COCCN1C(=O)CCC(N2C(=O)c3cccc(N)c3C2=O)C1=O (stereo not shown) [Example 27] .
output: 0.01 ± 0.02## cm^2

* * *

- System: mice
- Assay text: Biological Example 5: acute toxicity experiment of single oral administration in mice
- Type: in vivo
- Setup conditions: Male mice; Day 7; single oral 1000 mg/Kg; Mean ± SD
Measured attribute: Daily Body Weight (g)
The reply should be a number in g, with the unit left off.

molecule="COCCN1C(=O)CCC(N2C(=O)c3ccc(O)c(N)c3C2=O)C1=O (stereo not shown) [Example 8]" subject_of_test=mice recorded_result=29.2

input: Fill blank: measured Daily Body Weight of the molecule Nc1cccc2c1C(=O)N(C1CCC(=O)N(CCO)C1=O)C2=O (stereo not shown) [Example 6] is ____.
output: 27.1

input: Returns the measured Daily Body Weight for the input molecule. Input: COCCN1C(=O)CCC(N2C(=O)c3c(N)ccc(O)c3C2=O)C1=O (stereo not shown) [Example 10]
output: 30.3

input: Recorded Daily Body Weight for C[S+]([O-])CCN1C(=O)CCC(N2C(=O)c3cccc(N)c3C2=O)C1=O (stereo not shown) [Example 12] , please?
output: 28.5

Reference source: patent US20220372013A2
